Tested on: HGC‐27 (gastric carcinoma)
TEST_SUMMARY: Resazurin cell viability assay, HGC‐27
Type: cell-based
EXPERIMENTAL_SETUP: Homo sapiens, HGC-27; 50 µM, 72 h, mean ± SD, n = 3; read-out: % Cellular growth inhibition (at 50 µM) HGC‐27
inhibition at 50 µM overview
The number alone won't do; follow it with the unit.

COc1ccc2c(C(=O)c3cc(OC)c(OC)c(OC)c3)c(C(C)(C)C)cn2c1 [Compound 8b] :: 46%

API: value(readout= inhibition at 50 µM, system= HGC‐27 (gastric carcinoma), query= CCOc1cn2cc(OC)ccc2c1C(=O)c1cc(OC)c(OC)c(OC)c1 [Compound 8c] )
43%

And for COc1ccc(C(=O)c2ccn3cc(OC)ccc23)cc1 [Compound 7d] ?
1%

And for COc1ccc2c(C(=O)c3ccc(C)cc3)ccn2c1 [Compound 7c] ?
13%

And for COc1ccc2c(C(=O)c3cc(OC)c(OC)c(OC)c3)c(-c3ccccc3)cn2c1 [Compound 8f] ?
49%

====

System: BT‐20 (breast carcinoma)
TEST_SUMMARY: Resazurin cell viability assay, BT‐20
Type: cell-based
EXPERIMENTAL_SETUP: Homo sapiens, BT-20; 72 h, mean ± SD, n = 3; read-out: IC50 (nM) BT‐20
IC50 overview
# output: bare number, implied unit nM

CCCc1cn2cc(OC)ccc2c1C(=O)c1cc(OC)c(OC)c(OC)c1 :: 90
COc1ccc2c(C(=O)c3cc(OC)c(OC)c(OC)c3)c(C(F)(F)F)cn2c1 :: 105
COc1ccc2c(C(=O)c3ccc(Cl)c(Cl)c3)ccn2c1 :: 14100
COc1ccc2c(C(=O)c3cc(OC)c(OC)c(OC)c3)c(C)cn2c1 :: 370

# lookup: IC50 of "COc1ccc2c(C(=O)c3cc(OC)c(OC)c(OC)c3)ccn2c1"
111

And for COc1ccc2c(C(=O)c3cc(OC)c(OC)c(OC)c3)c[nH]c2c1 [BPR0L075, reference compound] ?
4

And for CC(=O)O[C@H]1C(=O)[C@@]2(C)[C@H]([C@H](OC(=O)c3ccccc3)[C@]3(O)C[C@H](OC(=O)[C@H](O)[C@@H](NC(=O)c4ccccc4)c4ccccc4)C(C)=C1C3(C)C)[C@]1(OC(C)=O)CO[C@@H]1C[C@@H]2O [Paclitaxel, reference compound] ?
45

====

IC50 overview
Tested on: CAL‐27 (oral carcinoma)
TEST_SUMMARY: Resazurin cell viability assay, CAL‐27
Assay type: cell-based
EXPERIMENTAL_SETUP: Homo sapiens, CAL-27; 72 h, mean ± SD, n = 3; read-out: IC50 (nM) CAL‐27
Protocol: […] Cell viability was analyzed using the resazurin assay. […] After incubation for 4 h at 37°C, fluorescence detection was performed (excitation 530/25 nm, emission 590/35 nm) using a microplate fluorimeter (Synergy 2, Biotek). […] Data were plotted, and IC₅₀ values were determined by nonlinear regression using GraphPad Prism software 9.0. ^a Cell viability was assessed using the resazurin assay after 72 hours of compound treatment. […]
# output: bare number, implied unit nM

# lookup: IC50 of "COc1ccc(-c2cn3cc(OC)ccc3c2C(=O)c2cc(OC)c(OC)c(OC)c2)cc1"
690

====

SUBJECT_OF_TEST: human P2X7 receptor (Homo sapiens)
Construct: host or cells: HEK-293
Sequence (Q99572 whole entry): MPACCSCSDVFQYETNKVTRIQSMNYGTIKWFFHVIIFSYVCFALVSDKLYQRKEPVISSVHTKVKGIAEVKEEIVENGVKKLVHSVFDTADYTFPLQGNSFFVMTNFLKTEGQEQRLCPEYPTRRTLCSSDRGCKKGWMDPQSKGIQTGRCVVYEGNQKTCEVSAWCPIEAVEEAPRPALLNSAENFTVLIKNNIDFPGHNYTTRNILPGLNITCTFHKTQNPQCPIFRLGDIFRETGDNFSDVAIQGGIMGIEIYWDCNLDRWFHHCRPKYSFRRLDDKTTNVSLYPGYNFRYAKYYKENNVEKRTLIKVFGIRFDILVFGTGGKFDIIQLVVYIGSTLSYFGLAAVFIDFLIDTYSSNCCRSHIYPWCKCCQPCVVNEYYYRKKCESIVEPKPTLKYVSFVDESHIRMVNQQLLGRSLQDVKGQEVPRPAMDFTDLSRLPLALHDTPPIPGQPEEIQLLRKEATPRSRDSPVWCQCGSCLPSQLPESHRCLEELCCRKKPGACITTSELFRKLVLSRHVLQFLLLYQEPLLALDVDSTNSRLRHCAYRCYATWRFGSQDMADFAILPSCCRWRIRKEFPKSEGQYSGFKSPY
TEST_SUMMARY: YO‐PRO‐1 dye uptake assay for the P2X7 receptor
Type: cell-based
EXPERIMENTAL_SETUP: P2X7; read-out: % Inhibition of P2X7R at 10 µM compounds’ concentration
Method: HEK‐293 cell lines stably expressing human P2X7 receptor (hP2X7R‐HEK‐293, B'SYS GmbH, Witterswil, Switzerland) were maintained in a 50/50 mix of Dulbecco's Modified Eagle Medium and F12 medium (DMEM/F12) supplemented with 9% (v/v) FCS, 1% (v/v) Penicillin/Streptomycin (10000 I.U./mL, 10 mg/mL in 0.9% NaCl) and G418 (100 µg/mL) at 37°C and 5% CO2. Cells were subcultured in cell culture 75 cm^2 flasks and split every 2‐4 days (1:3; 1:6; 1:10) once confluent. […]
inhibition at 10 µM overview
# output: bare number, implied unit %

COc1ccc2c(C(=O)c3cc(OC)c(OC)c(OC)c3)c(-c3ccccn3)cn2c1 :: 1
COc1ccc(C(=O)c2ccn3cc(OC)ccc23)cc1 :: 2
Cc1ccc(C(=O)c2ccn3ccccc23)cc1 :: -8
COc1ccc2c(C(=O)c3cc(OC)c(OC)c(OC)c3)c(C(C)(C)C)cn2c1 :: -7
CCCc1cn2cc(OC)ccc2c1C(=O)c1cc(OC)c(OC)c(OC)c1 :: -1

# lookup: inhibition at 10 µM of "CCOc1cn2cc(OC)ccc2c1C(=O)c1cc(OC)c(OC)c(OC)c1"
3

And for "COc1ccc(-c2cn3cc(OC)ccc3c2C(=O)c2cc(OC)c(OC)c(OC)c2)cc1" ?
10

Origin of the recorded values: paper PMC12673918
